Below, each entry is listed alongside its reported CH4 permeability.
Measured parameter: CH4 permeability (Barrer)

INSERT INTO results (molecule, measured_parameter, u, experimental_result) VALUES
  ('*C(=C(*)c1ccc2c(c1)C(C)(C)c1ccccc1-2)c1cccc(F)c1 (repeat unit)', 'CH4 permeability', 'Barrer', 11000),
  ('*c1ccc(-c2ccc(Oc3ccc(C4(c5ccc(Oc6ccc(-c7ccc(-n8c(=O)c9cc%10c(=O)n(*)c(=O)c%10cc9c8=O)cc7)cc6C(F)(F)F)cc5)c5ccccc5C(=O)N4c4ccccc4)cc3)c(C(F)(F)F)c2)cc1 (repeat unit)', 'CH4 permeability', 'Barrer', 0.79),
  ('*CCC[Si](*)(C)C (repeat unit)', 'CH4 permeability', 'Barrer', 8.4),
  ('*C(C)=C(*)C(C)C (repeat unit)', 'CH4 permeability', 'Barrer', 2690),
  ('*c1cccc(Oc2cccc(N3C(=O)c4ccc(C(c5ccc6c(c5)C(=O)N(*)C6=O)(C(F)(F)F)C(F)(F)F)cc4C3=O)c2)c1 (repeat unit)', 'CH4 permeability', 'Barrer', 0.032),
  ('*OC(=O)Oc1ccc(C2(c3ccc(*)cc3)CCCCC2)cc1 (repeat unit)', 'CH4 permeability', 'Barrer', 0.092),
  ('*c1ccc2c3c(ccc2c1)OC1CC3c2c(ccc3cc(N4C(=O)c5ccc(C(c6ccc7c(c6)C(=O)N(*)C7=O)(C(F)(F)F)C(F)(F)F)cc5C4=O)ccc23)O1 (repeat unit)', 'CH4 permeability', 'Barrer', 0.6),
  ('*c1ccc(C(C)(C)c2ccc(N3C(=O)c4ccc(C(c5ccc6c(c5)C(=O)N(*)C6=O)(C(F)(F)F)C(F)(F)F)cc4C3=O)cc2)cc1 (repeat unit)', 'CH4 permeability', 'Barrer', 0.698),
  ('*c1c(C)cc(C)c(N2C(=O)c3ccc(C(c4ccc5c(c4)C(=O)N(*)C5=O)(C(F)(F)F)C(F)(F)F)cc3C2=O)c1C (repeat unit)', 'CH4 permeability', 'Barrer', 20.4),
  ('*C(=C(*)c1ccc2c(c1)C(C)(C)c1cc([Si](C)(C)C)ccc1-2)c1ccccc1 (repeat unit)', 'CH4 permeability', 'Barrer', 10000),
  ('*c1ccc(C(c2ccc(N3C(=O)c4ccc(-c5ccc6c(c5)C(=O)N(*)C6=O)cc4C3=O)cc2)(C(F)(F)F)C(F)(F)F)cc1 (repeat unit)', 'CH4 permeability', 'Barrer', 0.611),
  ('*c1c(C)c2c(c(N3C(=O)c4ccc(-c5ccc6c(c5)C(=O)N(*)C6=O)cc4C3=O)c1C)C(C)(C)CC2 (repeat unit)', 'CH4 permeability', 'Barrer', 23.9),
  ('*/N=C1/c2ccc(C(c3ccc4c(c3)-c3nc5cc(Oc6ccc(*)c(*)c6)ccc5n3C4=O)(C(F)(F)F)C(F)(F)F)cc2C(=O)N1* (repeat unit)', 'CH4 permeability', 'Barrer', 0.54),
  ('*NC(=O)c1ccc(C(c2ccc(C(=O)O)c(C(=O)Nc3cc(Oc4ccc(*)c(N)c4)ccc3N)c2)(C(F)(F)F)C(F)(F)F)cc1C(=O)O (repeat unit)', 'CH4 permeability', 'Barrer', 0.087),
  ('*O[Si](C)(C)c1cccc([Si](*)(C)C)c1 (repeat unit)', 'CH4 permeability', 'Barrer', 106),
  ('*Oc1cc(C)c(C2(c3cc(C(C)C)c(Oc4ccc(S(=O)(=O)c5ccc(*)cc5)cc4)cc3C)OC(=O)c3ccccc32)cc1C(C)C (repeat unit)', 'CH4 permeability', 'Barrer', 0.928),
  ('*Oc1ccc(C(=O)c2ccccc2-c2ccccc2C(=O)c2ccc(Oc3c(C)cc(-c4cc(C)c(*)c(C)c4)cc3C)cc2)cc1 (repeat unit)', 'CH4 permeability', 'Barrer', 0.264),
  ('*c1ccc(Oc2ccc(C3(c4ccc(Oc5ccc(N6C(=O)c7ccc(C(c8ccc9c(c8)C(=O)N(*)C9=O)(C(F)(F)F)C(F)(F)F)cc7C6=O)cc5C(F)(F)F)cc4)c4ccccc4-c4ccccc43)cc2)c(C(F)(F)F)c1 (repeat unit)', 'CH4 permeability', 'Barrer', 2.43);
